These measurements were taken from patent US20230212222A1.

Field: ECmax (-fold induction over basal). Provide a value for each of the binders that follow.
Target: T1, GPR39 (G protein-coupled receptor 39) (Homo sapiens (Human), UniProt O43194 1-453)
T1 sequence: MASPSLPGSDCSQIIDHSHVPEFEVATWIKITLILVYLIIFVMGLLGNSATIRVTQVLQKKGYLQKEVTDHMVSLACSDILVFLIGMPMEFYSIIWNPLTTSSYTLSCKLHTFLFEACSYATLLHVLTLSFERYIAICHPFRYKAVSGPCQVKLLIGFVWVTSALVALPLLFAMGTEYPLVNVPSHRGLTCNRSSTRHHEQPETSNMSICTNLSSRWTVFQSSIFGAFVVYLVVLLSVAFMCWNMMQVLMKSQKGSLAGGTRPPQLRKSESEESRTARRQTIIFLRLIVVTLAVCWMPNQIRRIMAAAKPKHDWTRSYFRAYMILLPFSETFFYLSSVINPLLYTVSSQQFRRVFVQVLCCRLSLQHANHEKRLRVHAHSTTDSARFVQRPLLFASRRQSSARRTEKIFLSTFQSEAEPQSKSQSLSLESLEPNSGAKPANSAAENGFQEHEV
Test: cell-based or functional assay
Square brackets hold non-standard residues; d marks the D form. Ends that are not written are not given here. * marks the point of attachment. dPhe(4-CF3) = N[C@H](Cc1ccc(C(F)(F)F)cc1)C(=O)O; Trt = c1ccc(C(c2ccccc2)(c2ccccc2)*)cc1; Octanoyl = CCCCCCCC(=O)*

Example entries begin here.
[in] GET /values?readout=ECmax (-fold induction over basal)&item= H(Trt)K(Octanoyl)FYHQQARF (not fully specified; printed as His(trt)-Lys(caprylic)-Phe-Tyr-His-Gln-Gln-Ala-Arg-Phe) [HKFY-42]
[out] 11.8 -fold induction over basal

[in] What value of ECmax (-fold induction over basal) has been recorded for this entry: H(Trt)K(Octanoyl)[dPhe(4-CF3)]Y [HKFY-76]
[out] 14.2 -fold induction over basal

Then there is this binder:
[in] Return reported ECmax (-fold induction over basal); argument: H(Trt)K(Octanoyl)YF [HKFY-47]
[out] 13 -fold induction over basal
